# credit: patent US8318731B2

Exercise: for every item that follows, state its recorded IC50.
- Test system: A2780
- Method Summary: Cellular proliferation assay (Alamar blue), A2780
- Type: cell-based
- Study Conditions: Homo sapiens, A2780, A2780 cells; 10% FCS; 72 h with compound; Alamar blue 24 h; read-out: pIC50 A2780 (converted)
One number for each entry, in µM.

- CN1CC(=O)NCCOc2cccc(c2)Nc2ncnc3[nH]cc(c23)C1: 1

Shifting focus to the molecule that follows.
For the molecule shown here, "CCOCCOc1ccc2cc1OCC(=O)N(C)CCCN(C)Cc1cn(C)c3ncnc(c13)N2" , give the reported IC50.
0.2

----------
- Experimental Target: PLK4 (h) (Homo sapiens, UniProt O00444)
- Sequence (O00444 whole entry): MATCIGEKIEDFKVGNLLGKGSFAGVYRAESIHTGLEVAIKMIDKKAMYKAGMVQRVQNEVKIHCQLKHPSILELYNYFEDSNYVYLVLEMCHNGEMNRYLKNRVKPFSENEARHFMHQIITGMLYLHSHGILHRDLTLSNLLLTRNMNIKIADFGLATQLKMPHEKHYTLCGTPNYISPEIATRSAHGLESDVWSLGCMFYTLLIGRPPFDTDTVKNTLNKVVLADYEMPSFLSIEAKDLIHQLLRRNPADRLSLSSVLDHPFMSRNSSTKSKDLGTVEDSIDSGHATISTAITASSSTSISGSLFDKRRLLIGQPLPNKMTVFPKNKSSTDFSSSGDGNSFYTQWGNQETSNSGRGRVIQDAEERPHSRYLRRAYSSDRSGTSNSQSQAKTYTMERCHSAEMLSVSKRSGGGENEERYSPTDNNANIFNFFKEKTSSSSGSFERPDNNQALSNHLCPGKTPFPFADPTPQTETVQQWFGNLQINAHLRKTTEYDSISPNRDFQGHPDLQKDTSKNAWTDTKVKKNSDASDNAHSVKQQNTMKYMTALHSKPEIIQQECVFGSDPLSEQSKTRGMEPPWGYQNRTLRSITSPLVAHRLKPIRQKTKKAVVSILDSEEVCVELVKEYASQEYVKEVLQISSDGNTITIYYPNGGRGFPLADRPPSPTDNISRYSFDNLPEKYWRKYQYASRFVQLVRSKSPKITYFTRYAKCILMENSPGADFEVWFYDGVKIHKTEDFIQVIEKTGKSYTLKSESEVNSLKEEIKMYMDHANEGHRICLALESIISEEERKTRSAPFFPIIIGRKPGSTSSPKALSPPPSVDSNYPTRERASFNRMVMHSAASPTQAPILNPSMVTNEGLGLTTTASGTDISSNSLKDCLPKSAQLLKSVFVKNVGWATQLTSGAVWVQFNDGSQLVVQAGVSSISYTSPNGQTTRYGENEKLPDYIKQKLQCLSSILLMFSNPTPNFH
- Method Summary: PLK-4 human kinase scintillation proximity assay (SPA)
- Format: biochemical
- Study Conditions: 1 μM ATP, 60 minutes at r.t., read-out: PLK4 pIC50 (converted)
Observation Type: IC50

Examples from the recorded data:
• COc1ccc2cc1OCC(=O)N[C@@H](C)CN(C)CCCc1c[nH]c3ncnc(c13)N2 = > 10 µM
• COc1ccc2cc1OCC(=O)N1CCC[C@@H]1CN(C)CCCc1c[nH]c3ncnc(c13)N2 = > 10 µM
• COc1cc2cc(c1OC)OCCCC(=O)N1CCN(CC1)Cc1c[nH]c3ncnc(c13)N2 = > 10 µM
• COCCN1CC(=O)N(C)CCCc2c[nH]c3ncnc(c23)Nc2ccc(OC)c(c2)C1 = > 10 µM
• COc1cc2cc(c1OC)OCCCCC(=O)N1CCN(CC1)Cc1c[nH]c3ncnc(c13)N2 = > 10 µM

Your task in this section: give IC50 for each listed record.
1. COc1cc2cc(c1OC)CN(C)CC(=O)N(C)CCCc1c[nH]c3ncnc(c13)N2
2. COc1ccc2cc1CN(C)[C@@H](CC(C)C)C(=O)N(C)CCCc1c[nH]c3ncnc(c13)N2
3. O=C1CCCCOc2cc(cc(C(F)(F)F)c2)Nc2ncnc3[nH]cc(c23)CN2CCN1CC2
4. COc1ccc2cc1CN(C(C)C)CC(=O)N(C)CCCc1c[nH]c3ncnc(c13)N2

> 10 µM
> 10 µM
> 10 µM
> 10 µM

For the compound shown here, "CN1CCN(C)C(=O)CCCCOc2cc(ccc2N2CCOCC2)Nc2ncnc3[nH]cc(c23)C1" , give the reported IC50.
> 10 µM

----------
- Test system: PC3
- Method Summary: Cellular proliferation assay (Alamar blue), PC3
- Format: cell-based
- Study Conditions: Homo sapiens, PC-3, PC-3 cells; 10% FCS; 72 h with compound; Alamar blue 24 h; read-out: pIC50 PC-3 (converted)
Observation Type: IC50

Examples from the recorded data:
- COc1ccc2cc1OCC(=O)N(C1CCCCC1)CCCN(C)Cc1c[nH]c3ncnc(c13)N2: > 10 µM
- CCOCCOc1ccc2cc1OCC(=O)N(C)CCCN(C)Cc1c[nH]c3ncnc(c13)N2: 3.98 µM
- COc1ccc2cc1N(C)CC(=O)N(C)CCCN(C)Cc1c[nH]c3ncnc(c13)N2: 6.31 µM
- COc1ccc2cc1OCC(=O)N(C)CCCN(Cc1ccccc1)Cc1c[nH]c3ncnc(c13)N2: > 10 µM
- CN1CCCN(C)C(=O)COc2cc(ccc2OCCN(C)c2nccs2)Nc2ncnc3[nH]cc(c23)C1: 3.16 µM
- CN1CCN(C)C(=O)COc2cc(ccc2N2CCOCC2)Nc2ncnc3[nH]cc(c23)C1: > 10 µM
- CN1CCCN(C)C(=O)COc2cc(ccc2OCC(=O)N2CCOCC2)Nc2ncnc3[nH]cc(c23)C1: > 10 µM

Shifting focus to the compound that follows.
For the compound shown here, "COc1ccc2cc1OCC(=O)N(C(C)C)CCCN(C)Cc1c[nH]c3ncnc(c13)N2" , give the reported IC50.
> 10 µM

----------
- Experimental Target: PLK4 (h) (Homo sapiens)
- Method Summary: PLK-4 human kinase scintillation proximity assay (SPA)
- Assay type: biochemical
- Study Conditions: 1 μM ATP, 60 minutes at r.t., read-out: PLK4 pIC50 (converted)
Exercise: for every item that follows, state its recorded IC50.
Give bare numbers, in nM.

Examples from the recorded data:
* CN1CCCN(C)C(=O)COc2cc(ccc2OC2CCCC2)Nc2ncnc3[nH]cc(c23)C1 | 31.6
* CN1CCCN(C)C(=O)COc2cc(ccc2NC(=O)Nc2ccc(Cl)cc2)Nc2ncnc3[nH]cc(c23)C1 | 31.6

Shifting focus to the compound that follows.
Notebook: pull reported IC50 for PLK4 (h) (Homo sapiens), entry "CN1CCCN(C)C(=O)COc2cc(ccc2OCC(=O)NC2CCCCC2)Nc2ncnc3[nH]cc(c23)C1"
25.1

----------
- Experimental Target: PLK4 (h) (Homo sapiens)
- Method Summary: PLK-4 human kinase scintillation proximity assay (SPA)
- Type: biochemical
- Study Conditions: 1 μM ATP, 60 minutes at r.t., read-out: PLK4 pIC50 (converted)
Observation Type: IC50

Examples from the recorded data:
* CN1CCN(c2ccc3cc2OCCCC(=O)N2CCN(CC2)Cc2c[nH]c4ncnc(c24)N3)CC1 [Compound 109] | > 10 µM
* O=C1CCCCOc2cccc(c2)Nc2ncnc3[nH]cc(c23)CN2CCN1CC2 [Compound 86] | > 10 µM

Shifting focus to the compound that follows.
Notebook: pull reported IC50 for PLK4 (h) (Homo sapiens), entry COc1ccc2cc1CN(C)[C@@H](Cc1ccccc1)C(=O)N(C)CCCc1c[nH]c3ncnc(c13)N2 [Compound 51]
> 10 µM
